meta.source: patent EP0589484A1

system.name: acetylcholinesterase (Mus musculus)
Construct: a mouse cerebral homogenate (as an acetylcholinesterase source); from tissue; host or cells: mouse cerebrum (homogenate)
Sequence (P21836 32-614): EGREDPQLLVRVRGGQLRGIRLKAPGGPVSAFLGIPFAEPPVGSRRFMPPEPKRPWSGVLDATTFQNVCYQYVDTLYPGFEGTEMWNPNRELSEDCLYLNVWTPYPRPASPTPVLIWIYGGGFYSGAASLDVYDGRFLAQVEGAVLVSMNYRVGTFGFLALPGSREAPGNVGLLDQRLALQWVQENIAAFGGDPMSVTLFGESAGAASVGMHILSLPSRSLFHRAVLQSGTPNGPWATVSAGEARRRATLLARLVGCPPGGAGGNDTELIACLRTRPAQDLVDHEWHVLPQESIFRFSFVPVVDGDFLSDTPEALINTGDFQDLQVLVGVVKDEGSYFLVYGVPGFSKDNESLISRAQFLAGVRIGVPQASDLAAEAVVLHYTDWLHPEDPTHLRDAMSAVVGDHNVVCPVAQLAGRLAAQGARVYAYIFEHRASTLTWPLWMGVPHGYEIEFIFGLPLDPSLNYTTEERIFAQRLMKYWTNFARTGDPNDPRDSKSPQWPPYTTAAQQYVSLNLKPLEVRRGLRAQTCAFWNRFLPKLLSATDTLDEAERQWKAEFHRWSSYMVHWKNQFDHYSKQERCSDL
method.notes: Inhibitory activity for acetylcholinesterase (method of Ellman et al.)
Format: biochemical
study.conditions: final concentration of the test compound 10 µg/ml; mouse cerebral homogenate; read-out: Inhibition (%)
Structures can show the parent of a compound that is named as a salt.
# Lookup of reported inhibition at 10 µg/mL keyed by entry
endpoint.label: inhibition at 10 µg/mL (%)

INSERT INTO measurements (compound, endpoint_label, endpoint_result) VALUES
  ('OC(COC1CCN(Cc2ccccc2)CC1)c1ccccc1 (centres unmarked) [compound 113, hydrochloride]', 'inhibition at 10 µg/mL', 45),
  ('CN(C)CCOCC(O)c1ccc(SCc2ccccc2)cc1 (centres unmarked) [compound 222, hydrochloride]', 'inhibition at 10 µg/mL', 83),
  ('CN(C)CCOCC(O)c1ccc(Oc2ccccc2)c(F)c1 (centres unmarked) [compound 73]', 'inhibition at 10 µg/mL', 89),
  ('OC(COCCN1CCCC1)c1ccccc1 (centres unmarked) [compound 6]', 'inhibition at 10 µg/mL', 13),
  ('CN(C)CCOCC(O)c1ccc(-c2cccs2)cc1 (centres unmarked) [compound 224]', 'inhibition at 10 µg/mL', 36),
  ('O=C(c1ccc(F)cc1)C1CCN(CCOCC(O)c2ccc3sccc3c2)CC1 (centres unmarked) [compound 350]', 'inhibition at 10 µg/mL', 42),
  ('COc1ccc(Oc2ccc(C(O)COCCN(C)C)cc2)cc1 (centres unmarked) [compound 71]', 'inhibition at 10 µg/mL', 87),
  ('OC(COCCN1CCCCC1)c1cccc2ccccc12 (centres unmarked) [compound 237]', 'inhibition at 10 µg/mL', 44),
  ('CN(C)CCOCC(O)c1ccc(CCc2ccccc2)cc1 (centres unmarked) [compound 89]', 'inhibition at 10 µg/mL', 44),
  ('CN(C)CCOCC(O)c1ccc2ncccc2c1 (centres unmarked) [compound 319]', 'inhibition at 10 µg/mL', 30),
  ('OC(COCCN1CCCCC1)c1ccc(Cl)c(Cl)c1 (centres unmarked) [compound 37]', 'inhibition at 10 µg/mL', 45),
  ('CN(CCOCC(O)c1cccc2ccccc12)Cc1ccccc1 (centres unmarked) [compound 241]', 'inhibition at 10 µg/mL', 31),
  ('CN(C)CCOCC(O)c1cccc2ccc(Cl)cc12 (centres unmarked) [compound 246]', 'inhibition at 10 µg/mL', 30),
  ('O=C(c1ccc(F)cc1)C1CCN(CCOCC(O)c2cccc3ccccc23)CC1 (centres unmarked) [compound 260, hydrochloride]', 'inhibition at 10 µg/mL', 43),
  ('CN(C)CCOC[C@H](O)c1ccc(OCc2ccccc2)cc1 [compound 103]', 'inhibition at 10 µg/mL', 36),
  ('OC(COCCC1CCN(Cc2ccccc2)CC1)c1ccccc1 (centres unmarked) [compound 60]', 'inhibition at 10 µg/mL', 71),
  ('CNc1nc(Cl)c(C(O)COCCN(C)C)cc1F (centres unmarked) [compound 377]', 'inhibition at 10 µg/mL', 23),
  ('CN(C)CCOCC(O)c1ccc([N+](=O)[O-])s1 (centres unmarked) [compound 405]', 'inhibition at 10 µg/mL', 59),
  ('COc1ccc(-c2ccc(C(O)COCCN(C)C)cc2)cc1 (centres unmarked) [compound 55]', 'inhibition at 10 µg/mL', 22),
  ('OC(COCCC1CCN(Cc2ccccc2)CC1)c1ccc2sccc2c1 (centres unmarked) [compound 342]', 'inhibition at 10 µg/mL', 67);
